Consider the following binders; for each one, report its EC50 hC3 cleavage.
- target: plasma purified human complement protein C3 (human) (UniProt P01024)
- Sequence (P01024 23-667, chain 1 of 2): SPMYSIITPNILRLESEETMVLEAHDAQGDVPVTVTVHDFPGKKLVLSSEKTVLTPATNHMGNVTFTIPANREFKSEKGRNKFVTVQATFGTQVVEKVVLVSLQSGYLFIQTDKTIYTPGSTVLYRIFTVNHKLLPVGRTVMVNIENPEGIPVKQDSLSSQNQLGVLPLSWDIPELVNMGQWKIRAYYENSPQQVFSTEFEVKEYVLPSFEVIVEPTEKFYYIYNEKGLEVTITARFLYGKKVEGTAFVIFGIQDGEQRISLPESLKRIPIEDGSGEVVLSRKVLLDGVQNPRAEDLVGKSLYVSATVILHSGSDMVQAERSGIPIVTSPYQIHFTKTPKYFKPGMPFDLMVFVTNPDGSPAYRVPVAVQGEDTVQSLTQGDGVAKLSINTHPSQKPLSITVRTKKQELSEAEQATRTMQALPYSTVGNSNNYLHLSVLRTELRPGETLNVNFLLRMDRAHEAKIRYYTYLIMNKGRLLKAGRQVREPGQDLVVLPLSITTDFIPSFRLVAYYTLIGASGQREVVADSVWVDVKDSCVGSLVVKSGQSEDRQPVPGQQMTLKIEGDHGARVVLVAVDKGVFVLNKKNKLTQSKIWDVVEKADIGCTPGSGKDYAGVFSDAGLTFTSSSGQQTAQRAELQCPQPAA
- Sequence (P01024 672-1663, chain 2 of 2): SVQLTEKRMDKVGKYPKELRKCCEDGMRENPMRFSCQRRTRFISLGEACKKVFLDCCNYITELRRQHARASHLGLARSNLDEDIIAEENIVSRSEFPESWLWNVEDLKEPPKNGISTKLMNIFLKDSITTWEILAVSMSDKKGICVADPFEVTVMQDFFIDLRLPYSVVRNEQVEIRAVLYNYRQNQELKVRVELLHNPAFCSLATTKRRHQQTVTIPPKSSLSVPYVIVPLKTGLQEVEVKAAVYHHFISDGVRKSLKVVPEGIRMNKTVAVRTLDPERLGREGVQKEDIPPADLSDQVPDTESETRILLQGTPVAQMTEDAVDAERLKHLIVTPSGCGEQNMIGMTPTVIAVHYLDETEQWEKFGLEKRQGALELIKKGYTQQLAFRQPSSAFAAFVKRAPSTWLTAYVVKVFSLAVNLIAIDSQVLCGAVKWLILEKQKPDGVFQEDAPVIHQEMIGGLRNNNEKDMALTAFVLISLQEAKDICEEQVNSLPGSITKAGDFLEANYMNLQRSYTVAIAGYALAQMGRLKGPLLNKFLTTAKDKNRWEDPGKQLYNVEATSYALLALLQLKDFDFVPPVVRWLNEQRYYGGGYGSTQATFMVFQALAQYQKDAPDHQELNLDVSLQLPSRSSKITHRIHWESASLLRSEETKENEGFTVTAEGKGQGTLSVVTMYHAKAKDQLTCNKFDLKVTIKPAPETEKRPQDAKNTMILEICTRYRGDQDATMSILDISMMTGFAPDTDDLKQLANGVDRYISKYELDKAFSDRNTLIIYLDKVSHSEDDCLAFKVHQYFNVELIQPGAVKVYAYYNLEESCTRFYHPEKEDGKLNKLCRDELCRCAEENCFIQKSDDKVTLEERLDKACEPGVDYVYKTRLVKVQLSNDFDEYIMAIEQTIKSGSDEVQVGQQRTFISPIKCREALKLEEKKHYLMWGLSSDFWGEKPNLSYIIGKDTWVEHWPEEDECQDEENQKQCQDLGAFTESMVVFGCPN
- assay-comment: cell-based or functional assay
Give just the number in nM; leave the unit off.

EC50 hC3 cleavage lookup needed for MTSP-1 protease domain I41D/F97T/F99L/C122S/G151N/Q175S/D217A (enzyme) VVGGTDADEGEWPWQVSLHALGQGHDCGASLISPNWLVSAAHCYIDDRGFRYSDPTQWTAFLGLHDQSQRSAPGVQERRLKRIISHPFFNDTTLDYDIALLELEKPAEYSSMVRPISLPDASHVFPAGKAIWVTGWGHTQYGGTNALILQKGEIRVINQTTCENLLPQSITPRMMCVGFLSGGVDSCQGDSGGPLSSVEADGRIFQAGVVSWGAGCAQRNKPGVYTRLPLFRDWIKENTGV , thanks.
25.5

Would you kindly share the measured EC50 hC3 cleavage for MTSP-1 protease domain Q38H/I41A/D60bV/F60eR/Y60gW/D96F/F97S/ins97aH/T98G/F99L/C122S/G151N/Q175L/Q192G (enzyme) VVGGTDADEGEWPWQVSLHALGHGHACGASLISPNWLVSAAHCYIDVRGRRWSDPTQWTAFLGLHDQSQRSAPGVQERRLKRIISHPFFNFSHGLDYDIALLELEKPAEYSSMVRPISLPDASHVFPAGKAIWVTGWGHTQYGGTNALILQKGEIRVINQTTCENLLPQLITPRMMCVGFLSGGVDSCGGDSGGPLSSVEADGRIFQAGVVSWGDGCAQRNKPGVYTRLPLFRDWIKENTGV ?
3.14

Given the entry MTSP-1 protease domain I41T/F97R/ins97aV/T98L/C122S/Q192S (enzyme) VVGGTDADEGEWPWQVSLHALGQGHTCGASLISPNWLVSAAHCYIDDRGFRYSDPTQWTAFLGLHDQSQRSAPGVQERRLKRIISHPFFNDRVLFDYDIALLELEKPAEYSSMVRPISLPDASHVFPAGKAIWVTGWGHTQYGGTGALILQKGEIRVINQTTCENLLPQQITPRMMCVGFLSGGVDSCSGDSGGPLSSVEADGRIFQAGVVSWGDGCAQRNKPGVYTRLPLFRDWIKENTGV , report its measured EC50 hC3 cleavage.
13.2

I am curious: what EC50 hC3 cleavage value has been reported for MTSP-1 protease domain Q38K/I41G/D60bT/F60eG/Y60gW/D96P/F97N/T98G/F99L/C122S/G151N/Q175L/Q192D (enzyme) VVGGTDADEGEWPWQVSLHALGKGHGCGASLISPNWLVSAAHCYIDTRGGRWSDPTQWTAFLGLHDQSQRSAPGVQERRLKRIISHPFFNPNGLDYDIALLELEKPAEYSSMVRPISLPDASHVFPAGKAIWVTGWGHTQYGGTNALILQKGEIRVINQTTCENLLPQLITPRMMCVGFLSGGVDSCDGDSGGPLSSVEADGRIFQAGVVSWGDGCAQRNKPGVYTRLPLFRDWIKENTGV ?
27.4

Entry under review: MTSP-1 protease domain I41S/D96K/F97G/ins97aV/T98P/F99L/C122S/Q175H/Q192D (enzyme) VVGGTDADEGEWPWQVSLHALGQGHSCGASLISPNWLVSAAHCYIDDRGFRYSDPTQWTAFLGLHDQSQRSAPGVQERRLKRIISHPFFNKGVPLDYDIALLELEKPAEYSSMVRPISLPDASHVFPAGKAIWVTGWGHTQYGGTGALILQKGEIRVINQTTCENLLPQHITPRMMCVGFLSGGVDSCDGDSGGPLSSVEADGRIFQAGVVSWGDGCAQRNKPGVYTRLPLFRDWIKENTGV . Reported EC50 hC3 cleavage?
195

Value source: patent US20240018502A1
